Biological target: EPHB1 (UniProt P54762)
Sequence (P54762 whole entry, looked up): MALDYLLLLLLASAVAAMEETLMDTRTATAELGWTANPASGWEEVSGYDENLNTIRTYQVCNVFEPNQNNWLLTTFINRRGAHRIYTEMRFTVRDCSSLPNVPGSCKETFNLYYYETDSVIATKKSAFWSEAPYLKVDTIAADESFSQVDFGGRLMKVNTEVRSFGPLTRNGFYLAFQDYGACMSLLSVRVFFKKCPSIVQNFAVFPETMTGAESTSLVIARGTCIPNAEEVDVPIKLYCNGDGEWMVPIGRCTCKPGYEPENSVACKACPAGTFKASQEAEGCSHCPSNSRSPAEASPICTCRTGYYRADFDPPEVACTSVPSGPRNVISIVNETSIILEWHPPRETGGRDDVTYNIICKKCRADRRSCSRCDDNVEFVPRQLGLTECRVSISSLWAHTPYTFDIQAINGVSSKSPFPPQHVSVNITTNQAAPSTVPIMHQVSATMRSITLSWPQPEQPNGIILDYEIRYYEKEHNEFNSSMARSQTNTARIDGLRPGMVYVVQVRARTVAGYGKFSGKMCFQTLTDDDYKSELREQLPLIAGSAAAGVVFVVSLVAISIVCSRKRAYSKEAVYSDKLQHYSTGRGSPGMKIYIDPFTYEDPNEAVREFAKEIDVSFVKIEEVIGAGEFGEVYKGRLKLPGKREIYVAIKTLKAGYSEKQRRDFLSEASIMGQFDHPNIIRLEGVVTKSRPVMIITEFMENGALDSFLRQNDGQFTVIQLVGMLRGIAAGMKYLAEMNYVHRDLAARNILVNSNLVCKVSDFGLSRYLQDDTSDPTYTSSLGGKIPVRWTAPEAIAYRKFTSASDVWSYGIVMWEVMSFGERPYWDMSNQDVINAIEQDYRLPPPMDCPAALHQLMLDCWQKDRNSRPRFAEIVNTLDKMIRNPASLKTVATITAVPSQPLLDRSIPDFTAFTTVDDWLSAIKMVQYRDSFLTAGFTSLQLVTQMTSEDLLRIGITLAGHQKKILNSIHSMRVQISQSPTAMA
Test: phosphorylation enrichment, bacterial display (enrichment ratio); higher = better substrate or ligand; peptides without Tyr show the background
Mark rule met for reported phosphorylation enrichment of 0.5 or greater; mark rule not met for anything smaller.

Before answering, review these 3 worked examples.
LKYAIYFEVRE [LAMA2_Y1258_A1261V] :: rule met
CNLDTYQKRLR [PLA2G2D_Y126_R121C] :: rule not met
CTTIFYNFMCN [TP53_Y234_H233Y_YF] :: rule met

State whether the measured phosphorylation enrichment reaches 0.5, counting equality as reaching it, for DGNTRYSTFSE [TKTL1_Y318_D315N]
rule not met

Please tell me: is the sequence GRQGIYKENER [GPR143_Y231_T232K] at or over 0.5 in terms of phosphorylation enrichment?
rule not met

Please check the record FKIFLYTLNDN [FN1_Y1975_YF] and state if its phosphorylation enrichment is at or above 0.5.
rule met

Item KDAGDYKCKAK [LRIT3_Y326] with phosphorylation enrichment of 0.5 or above?
rule not met

Answer whether phosphorylation enrichment of TDRNLYSKNLV [CFAP58_Y501_S496T] is greater than or equal to 0.5.
rule met

Tell me whether phosphorylation enrichment is at least 0.5 here: EERKTYVNTTL [TEK_Y1102]
rule met

Is it the case that KLKRSYPSPDI [USP8_Y717_S718P] has phosphorylation enrichment reaching or exceeding 0.5?
rule not met

Quick check, phosphorylation enrichment >= 0.5? HITQVYGFFDE [PPP2CA_Y127_Q122H_YF]
rule met

Confirm if phosphorylation enrichment reported for the sequence QMQNPYSSHSS [MUC13_Y501_R503S] is 0.5 or above.
rule met

###

Biological target: EPHB2 (UniProt P29323)
Sequence (P29323 whole entry, looked up): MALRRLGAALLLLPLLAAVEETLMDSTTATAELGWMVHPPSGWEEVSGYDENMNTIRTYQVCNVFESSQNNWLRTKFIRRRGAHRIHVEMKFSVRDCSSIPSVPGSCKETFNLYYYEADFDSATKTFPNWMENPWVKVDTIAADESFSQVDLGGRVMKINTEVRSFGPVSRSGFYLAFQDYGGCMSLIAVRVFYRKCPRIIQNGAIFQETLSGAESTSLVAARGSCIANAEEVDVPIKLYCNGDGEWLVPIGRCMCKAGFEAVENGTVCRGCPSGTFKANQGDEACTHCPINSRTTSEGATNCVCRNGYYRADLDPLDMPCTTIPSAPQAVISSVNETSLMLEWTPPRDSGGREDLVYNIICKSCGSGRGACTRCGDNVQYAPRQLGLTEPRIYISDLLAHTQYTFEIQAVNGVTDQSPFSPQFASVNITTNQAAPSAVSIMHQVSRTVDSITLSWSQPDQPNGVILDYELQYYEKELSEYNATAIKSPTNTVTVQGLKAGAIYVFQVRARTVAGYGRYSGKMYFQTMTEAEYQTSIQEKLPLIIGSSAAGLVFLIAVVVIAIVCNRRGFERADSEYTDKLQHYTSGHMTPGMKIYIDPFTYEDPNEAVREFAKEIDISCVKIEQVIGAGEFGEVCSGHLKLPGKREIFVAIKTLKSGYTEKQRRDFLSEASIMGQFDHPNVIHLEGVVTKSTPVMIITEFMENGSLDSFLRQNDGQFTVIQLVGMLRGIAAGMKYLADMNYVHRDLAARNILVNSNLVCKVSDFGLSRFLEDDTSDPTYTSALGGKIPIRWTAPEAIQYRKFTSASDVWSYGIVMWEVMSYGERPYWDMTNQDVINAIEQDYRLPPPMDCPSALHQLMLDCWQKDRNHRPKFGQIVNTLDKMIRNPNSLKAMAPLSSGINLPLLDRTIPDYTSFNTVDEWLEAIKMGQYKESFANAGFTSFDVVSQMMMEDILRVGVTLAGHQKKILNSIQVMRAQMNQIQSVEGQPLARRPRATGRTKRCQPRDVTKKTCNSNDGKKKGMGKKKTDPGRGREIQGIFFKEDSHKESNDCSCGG
Assay: phosphorylation enrichment, bacterial display (enrichment ratio); higher = better substrate or ligand; peptides without Tyr show the background
observable: phosphorylation enrichment

The cases that follow already have their phosphorylation enrichment on record.
AISEGYKDFRA [CDA_Y79_V75I] :: 0.415
ADPQEYIPLPA [JAKtide_2014] :: 0.49
PDMHSYMVRYN [GRIN2D_Y732] :: 0.787
PSSNLYFRCLT [CNGA3_Y168_W171C_YF] :: 0.809
FAELVYTSFWH [ASS1_Y322_G324S] :: 3.44

Given the entry TKDTFHKQPMF [GBA_Y451_Y451H] , what phosphorylation enrichment was observed with EPHB2 (UniProt P29323)?
0.352

Request body: readout phosphorylation enrichment, system EPHB2 (UniProt P29323), query EEVKAYLDFGE [CHAC2_Y78_R82G] . Return the value.
0.535

###

Target: Grb2 SH2 (UniProt P62993)
Sequence (P62993 whole entry, looked up): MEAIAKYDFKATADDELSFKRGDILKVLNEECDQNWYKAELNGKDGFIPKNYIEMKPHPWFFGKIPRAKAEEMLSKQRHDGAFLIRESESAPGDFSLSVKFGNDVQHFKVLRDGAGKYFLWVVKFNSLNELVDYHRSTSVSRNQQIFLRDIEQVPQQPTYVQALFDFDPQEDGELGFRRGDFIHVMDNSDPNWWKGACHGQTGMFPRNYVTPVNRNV
Experiment: SH2 binding enrichment of the phosphorylated peptide, bacterial display (enrichment ratio); higher = better substrate or ligand; peptides without Tyr show the background
yes means recorded SH2 binding enrichment is 0.8 or above; no means it is below 0.8.

Use these answered entries as a reference point.
ILGRYYERGSI [PAX5_Y73_T75R] :: yes
NTGDFYDLFGG [PTPN11_Y63_YF] :: yes
TEFSQYMRRKN [MAX_Y73_I71S_YF] :: no
GINDDYGQLKN [NBN_Y679] :: yes
ICANKYMVESC [RPL10_Y75_K78E] :: yes
REVPVYTYSEP [FAM120B_Y368_D370Y] :: yes
FSAPNCCFRCG [PPP2CA_Y265_Y265C_YF] :: yes
IIRRLYLKWHP [SACS_Y4333] :: no

# input for lookup
In plain terms: is recorded SH2 binding enrichment at least 0.8 for DELDKYSEVLK [TPM1_Y60_A63V] ?
yes

###

System: AncSZ
Assay: phosphorylation enrichment, bacterial display (enrichment ratio); higher = better substrate or ligand; peptides without Tyr show the background
observable: phosphorylation enrichment

Some solved entries appear below for comparison.
DVFLKHLNFAT [PDE6B_Y212_Y212H] :: 0.785
LIDSSYLTPTA [GREB1L_Y1063_R1066P] :: 0.919
PSELFYSKIGP [SMG1_Y2254_YF] :: 1.21
KLQKKYGPIYS [CYP17A1_Y60] :: 0.433
NGRQCYSCRGN [PLAUR_Y217_K220R] :: 0.375
TQRPFYKGGGG [TYROBP_Y112_YF] :: 0.48

Looking for the measured phosphorylation enrichment of NFDRIYIFHLR [MYOF_Y1137_V1136I_YF] , can you help?
1.53

Would you kindly share the measured phosphorylation enrichment for FVPSNYVAEDR [FRK_Y104_I100V_YF] ?
0.782

What value of phosphorylation enrichment has been recorded for this entry: VMVCAYLLHRG [PTEN_Y138_I135V]
1.13

I would be grateful if you could share the reported phosphorylation enrichment for VEDPEYAVTQP [STOML2_Y124_L129P] .
1.54

###

Target: SHP2-C SH2
Assay: SH2 binding enrichment of the phosphorylated peptide, bacterial display (enrichment ratio); higher = better substrate or ligand; peptides without Tyr show the background
Mark 1 for reported SH2 binding enrichment of 0.8 or greater; mark -1 for anything smaller.

Field: example entries. Status: answers known.
PVQAADQKVVA [HBB_Y131_Y131D] :: -1
VEKEKYVSFIS [JMJD1C_Y596_M591V_YF] :: -1

--- query ---
Reported SH2 binding enrichment at or above 0.8? DVFVSYDFGKS [SORL1_Y139_YF]
-1

###

Items are presented alongside their recorded SH2 binding enrichment.
Target: SHP2-C SH2
Assay: SH2 binding enrichment of the phosphorylated peptide, bacterial display (enrichment ratio); higher = better substrate or ligand; peptides without Tyr show the background
Output: the number by itself.

ENAGYYFRVSA :: 0.976
TKFVAYIESQG [KDM4B_Y34_N29T_YF] :: 0.703
IGRWVYPLTPE [EIF2B5_Y319_R315G] :: 0.878
KLIETCFSKNY [PLP1_Y50_Y50C] :: 0.652
YPLELYERVRM [PRKCG_Y312] :: 0.83

Missing value: SH2 binding enrichment, SHP2-C SH2, entry NTDETYCIDNK [TUBB3_Y200_E205K] . Fill in?
0.955

Form field - read-out: SH2 binding enrichment; system: SHP2-C SH2; submitted item: EFISECCGEII [EZH2_Y641_Y641C]
0.739

Find SH2 binding enrichment (SHP2-C SH2) for the entry RGFRQYAFDGK [HLA-A_Y140_D140Y_YF]
0.794

###

Biological target: FGFR3 (UniProt P22607)
Sequence (P22607 whole entry, looked up): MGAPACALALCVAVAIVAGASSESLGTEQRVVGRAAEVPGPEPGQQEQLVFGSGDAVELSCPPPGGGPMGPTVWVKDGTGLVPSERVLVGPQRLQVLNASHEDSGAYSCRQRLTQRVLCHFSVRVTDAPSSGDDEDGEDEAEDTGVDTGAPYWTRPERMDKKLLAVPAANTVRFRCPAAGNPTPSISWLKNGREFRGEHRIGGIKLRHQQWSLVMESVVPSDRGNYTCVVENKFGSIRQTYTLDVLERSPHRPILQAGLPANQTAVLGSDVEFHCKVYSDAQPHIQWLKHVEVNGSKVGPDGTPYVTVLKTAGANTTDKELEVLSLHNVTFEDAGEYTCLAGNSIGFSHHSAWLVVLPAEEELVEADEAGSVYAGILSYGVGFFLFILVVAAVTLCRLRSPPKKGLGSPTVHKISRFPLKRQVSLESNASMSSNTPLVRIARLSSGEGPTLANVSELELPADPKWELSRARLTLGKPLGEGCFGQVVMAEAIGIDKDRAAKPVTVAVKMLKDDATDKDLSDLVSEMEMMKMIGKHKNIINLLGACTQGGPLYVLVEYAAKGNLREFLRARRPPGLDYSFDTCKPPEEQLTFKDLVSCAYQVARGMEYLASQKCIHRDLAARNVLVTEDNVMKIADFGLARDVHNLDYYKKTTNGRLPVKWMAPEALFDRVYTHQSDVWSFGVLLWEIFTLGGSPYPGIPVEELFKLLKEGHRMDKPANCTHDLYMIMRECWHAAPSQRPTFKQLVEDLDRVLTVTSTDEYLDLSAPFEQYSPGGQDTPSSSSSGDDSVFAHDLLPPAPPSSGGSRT
Experiment: phosphorylation enrichment, bacterial display (enrichment ratio); higher = better substrate or ligand; peptides without Tyr show the background
Listing: phosphorylation enrichment of selected sequences
Response field accepts a number only; no unit should be typed.

What does the record list as phosphorylation enrichment for FRKNIYNVKST [SYNE2_Y575_YF] ?
0.355

GET /values?readout=phosphorylation enrichment&item= ADLVQYFMEHH [PTPN11_Y80_E76D_YF]
0.708

###

Molecular target: Fyn (UniProt P06241)
Sequence (P06241 whole entry, looked up): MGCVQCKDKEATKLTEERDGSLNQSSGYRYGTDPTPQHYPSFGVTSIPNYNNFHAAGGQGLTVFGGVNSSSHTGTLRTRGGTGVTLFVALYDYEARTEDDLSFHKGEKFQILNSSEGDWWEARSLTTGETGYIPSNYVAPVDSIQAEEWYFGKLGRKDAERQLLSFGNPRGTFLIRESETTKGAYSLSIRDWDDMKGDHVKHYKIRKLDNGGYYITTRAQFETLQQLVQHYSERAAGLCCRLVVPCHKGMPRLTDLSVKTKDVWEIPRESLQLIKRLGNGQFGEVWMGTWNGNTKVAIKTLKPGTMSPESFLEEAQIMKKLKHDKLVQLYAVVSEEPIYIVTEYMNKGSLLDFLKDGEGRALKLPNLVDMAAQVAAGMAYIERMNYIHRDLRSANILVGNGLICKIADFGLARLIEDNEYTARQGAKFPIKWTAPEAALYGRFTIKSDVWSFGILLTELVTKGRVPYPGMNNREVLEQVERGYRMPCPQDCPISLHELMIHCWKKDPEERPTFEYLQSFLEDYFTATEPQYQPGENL
Assay: phosphorylation enrichment, bacterial display (enrichment ratio); higher = better substrate or ligand; peptides without Tyr show the background
Decide by phosphorylation enrichment: equal to or exceeding 0.7 means 1, less means 0.

GCRSKHVGLWG [KCNQ1_Y184_Y184H] :: 0
CTTVHYNYMCN [TP53_Y234_I232V] :: 0
VFFFSYLLKNH [PTEN_Y180_YF] :: 0

Quick check, phosphorylation enrichment >= 0.7? SWSTSYSGYRC [NKAPL_Y91_Y96C]
0

Given PLLLSYFLIKW [NUP160_Y773_YF] , state whether its phosphorylation enrichment is at least 0.7.
0

Evaluate GRRGQYVMLSE [TTC7A_Y396] : phosphorylation enrichment at minimum 0.7?
0

Threshold query (phosphorylation enrichment >= 0.7) on YSGIYYKPESL [L2HGDH_Y103_H98Y]
1

Hi team, for TSPALYRLDLD [TRIL_Y352_A347T] , is the recorded phosphorylation enrichment at or above 0.7?
1

Record EFISECCGEII [EZH2_Y641_Y641C] ; criterion: phosphorylation enrichment no lower than 0.7. Met?
0

hey, is phosphorylation enrichment for this one >= 0.7? PVVKLYATEGR [RP1_Y199_D202E]
0

Is phosphorylation enrichment at least 0.7? Consider SSEYHCVGGFY [CTSC_Y347_Y347C]
1

###

Target: Grb2 SH2 (UniProt P62993)
Experiment: SH2 binding enrichment of the phosphorylated peptide, bacterial display (enrichment ratio); higher = better substrate or ligand; peptides without Tyr show the background
observable: SH2 binding enrichment
Quick one: just the number, no unit, thanks!

Some solved cases for reference:
PLRANYLIARV [HLCS_Y635_D634N] :: 1.27
PRQRRYVFFFS [PTEN_Y174_S170R_YF] :: 0.861
KLQKKYGPIFS [CYP17A1_Y60_YF] :: 0.882
GIFSGYDDAWD [POLR1C_Y36_N32I_YF] :: 0.968
VMVCAYLLHRG [PTEN_Y138_I135V] :: 0.91

Short answer please: SH2 binding enrichment, Grb2 SH2 (UniProt P62993), entry CNLDTYQKRLR [PLA2G2D_Y126_R121C]
0.974

Observed SH2 binding enrichment on Grb2 SH2 (UniProt P62993) for FEPWVYSLSYE [PRKDC_Y647_F649L] , please.
0.812

# query: SH2 binding enrichment | item KPGLKYVTYGN [GALNTL5_Y404] | system: Grb2 SH2 (UniProt P62993)
1.34

For the record ADEEEYEIIAA [FEStide_E_2014] , what value of SH2 binding enrichment is listed for Grb2 SH2 (UniProt P62993)?
0.711
